- Tested System: MAPKAP-K1a/b (Oryctolagus cuniculus, UniProt A0A5F9C4L9)
- Construct: GST
- Sequence (A0A5F9C4L9 1-740): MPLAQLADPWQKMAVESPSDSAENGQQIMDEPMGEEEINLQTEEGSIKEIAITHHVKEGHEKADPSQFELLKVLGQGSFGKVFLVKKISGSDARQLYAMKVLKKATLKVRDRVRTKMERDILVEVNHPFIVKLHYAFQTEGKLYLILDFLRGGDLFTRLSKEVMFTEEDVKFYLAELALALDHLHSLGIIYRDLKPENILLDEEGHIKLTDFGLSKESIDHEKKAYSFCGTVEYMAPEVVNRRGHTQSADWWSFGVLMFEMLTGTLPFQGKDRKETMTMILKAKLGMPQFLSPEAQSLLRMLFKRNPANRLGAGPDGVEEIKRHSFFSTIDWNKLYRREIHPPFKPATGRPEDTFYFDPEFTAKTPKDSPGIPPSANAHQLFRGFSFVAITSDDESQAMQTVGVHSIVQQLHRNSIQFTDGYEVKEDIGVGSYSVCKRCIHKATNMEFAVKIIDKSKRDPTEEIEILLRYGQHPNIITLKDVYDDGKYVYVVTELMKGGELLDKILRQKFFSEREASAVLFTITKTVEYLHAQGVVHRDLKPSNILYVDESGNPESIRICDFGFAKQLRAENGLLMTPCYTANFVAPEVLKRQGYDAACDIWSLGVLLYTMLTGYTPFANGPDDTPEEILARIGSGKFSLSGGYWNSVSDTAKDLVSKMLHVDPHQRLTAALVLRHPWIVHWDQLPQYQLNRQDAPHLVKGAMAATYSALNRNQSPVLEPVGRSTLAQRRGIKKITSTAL
- Test Description: Effect of Ro 318220 on MAPKAP-K1a/b in vitro
- Cond: Alessi 1997, FIG. 9A
Result Type: IC50

// IC50 value for Cn1cc(C2=C(c3cn(CCCSC(=N)N)c4ccccc34)C(=O)NC2=O)c2ccccc21 [Ro 318220] : 10 to 30 nM
